Assay: Partitioning of reaction intermediates and solvents between upper toluene-rich and lower aqueous phases (toluene extraction)
Settings: upper toluene-rich layer / lower aqueous-rich layer; toluene added to reactor product of wood digestion, stirred at 150° C. for 2 hours, then cooled and decanted
Item-by-item account of Kow UL/LL (partition coefficients for toluene extraction)
MEASURED QUANTITY: Kow UL/LL (partition coefficients for toluene extraction)

- CC(O)CO (stereo not shown): 5.09
- CCCc1ccc(O)c(OC)c1: 33.59
- Cc1cccc(C)c1O: 51.79
- OCCO: 0.42
